The values you see were collected from patent US11034654B2.

- Measured On: RORγ ligand binding domain (Homo sapiens, UniProt P51449)
- Protocol Notes: RORγ radioligand competition binding assay (SPA)
- Condition: competition with tritiated 2-(4-(ethylsulfonyl)phenyl)-N-(4-(2-(methoxymethyl)phenyl)thiophen-2-yl)acetamide (25 nM), hRORγ LBD
Could you please report measured IC50 for the items listed next?
Give bare numbers, in nM.

Reference set, count: 5
Molecule	IC50 (nM)
CC(=O)N1Cc2cc(S(C)(=O)=O)ccc2C1C(=O)Nc1ccc(C(NCCOC(C)C)(C(F)(F)F)C(F)(F)F)cc1 (stereo not drawn)	7.94
CC(=O)N1Cc2cc(S(C)(=O)=O)ccc2C1C(=O)Nc1ccc(C(C#N)(C(F)(F)F)C(F)(F)F)cc1 (stereo not drawn)	15.8
CC(=O)N1Cc2cc(S(C)(=O)=O)ccc2C1C(=O)Nc1ccc(C(CC(=O)N2CC(C)(F)C2)(C(F)(F)F)C(F)(F)F)cc1 (stereo not drawn)	398
CCS(=O)(=O)c1ccc2c(c1)CN(C(C)=O)C2C(=O)Nc1ccc(C(C#N)(C(F)(F)F)C(F)(F)F)cc1 (stereo not drawn)	5.01
CC(=O)N1Cc2cc(S(C)(=O)=O)ccc2C1C(=O)Nc1ccc(C(CC(=O)OC(C)C)(C(F)(F)F)C(F)(F)F)cc1 (stereo not drawn)	12.6

In the following, a different molecule is considered.
Ask: Tell me reported IC50 for CC(=O)N1Cc2cc(S(C)(=O)=O)ccc2C1C(=O)Nc1ccc(C(N2CCOCC2)(C(F)(F)F)C(F)(F)F)cc1 (stereo not drawn) , tested with RORγ ligand binding domain (Homo sapiens, UniProt P51449).
Result: 20

###

- Measured On: RORγ ligand binding domain (Homo sapiens, UniProt P51449)
- Protocol Notes: RORγ co-factor recruitment assay (FRET)
- Format: biochemical
- Design: made in house; host or cells: E. coli BL21DE3 Star
- Condition: inhibition of recruitment of SRC-1 peptide (NCOA1_677-700) to hRORγ LBD, HTRF read-out
Could you please report measured pIC50 for the items listed next?
Answers are plain numbers, as −log10 of the molar value.

Compound	Value Measured
COCC(=O)N1Cc2cc(S(C)(=O)=O)ccc2C1C(=O)Nc1ccc(C(C#N)(C(F)(F)F)C(F)(F)F)cc1 (stereo not shown)	7.30
COC(=O)CC(c1ccc(NC(=O)C2NCc3cc(S(C)(=O)=O)ccc32)cc1)(C(F)(F)F)C(F)(F)F (stereo not shown)	6.70
CNC(=O)N1Cc2cc(S(C)(=O)=O)ccc2C1C(=O)Nc1ccc(C(C#N)(C(F)(F)F)C(F)(F)F)cc1 (stereo not shown)	7.20
CC(=O)N1Cc2cc(S(C)(=O)=O)ccc2C1C(=O)Nc1ccc(C(CC#N)(C(F)(F)F)C(F)(F)F)cc1 (stereo not shown)	7.00
COC1(C(=O)N2Cc3cc(S(C)(=O)=O)ccc3C2C(=O)Nc2ccc(C(C#N)(C(F)(F)F)C(F)(F)F)cc2)CC1 (stereo not shown)	6.60
CNC(c1ccc(NC(=O)C2c3ccc(S(C)(=O)=O)cc3CN2C(C)=O)cc1)(C(F)(F)F)C(F)(F)F (stereo not shown)	7.30

In the following, a different compound is considered.
Ask: Give its pIC50 value. Item: CS(=O)(=O)c1ccc2c(c1)CNC2C(=O)Nc1ccc(C(C#N)(C(F)(F)F)C(F)(F)F)cc1 (stereo not shown)
Result: 6.90

###

Could you please report measured IC50 for the items listed next?
- Measured On: RORγ ligand binding domain (Homo sapiens, UniProt P51449)
- Protocol Notes: RORγ co-factor recruitment assay (FRET)
- Assay type: biochemical
- Set-up: made in house; host or cells: E. coli BL21DE3 Star
- Condition: inhibition of recruitment of SRC-1 peptide (NCOA1_677-700) to hRORγ LBD, HTRF read-out
Answers are plain numbers, in nM.

Reference set, count: 3
Compound	IC50 [nM]
CC(=O)N1Cc2cc(S(C)(=O)=O)ccc2C1C(=O)Nc1ccc(C(CC(=O)NC(C)(C)C)(C(F)(F)F)C(F)(F)F)cc1 (stereo not drawn)	158
CC(=O)N1Cc2cc(S(C)(=O)=O)ccc2C1C(=O)Nc1ccc(C(NC2CCOCC2)(C(F)(F)F)C(F)(F)F)cc1 (stereo not drawn)	100
COC(c1ccc(NC(=O)C2c3ccc(S(C)(=O)=O)cc3CN2C(C)=O)cc1)(C(F)(F)F)C(F)(F)F (stereo not drawn)	39.8

In the following, a different compound is considered.
Ask: Give its IC50 value. Item: COC(=O)N1Cc2cc(S(C)(=O)=O)ccc2C1C(=O)Nc1ccc(C(C#N)(C(F)(F)F)C(F)(F)F)cc1 (stereo not drawn)
Result: 50.1
